Attribution: ChEMBL document CHEMBL2429734

tested on: Enterococcus faecalis; assay: Antibacterial activity against Enterococcus faecalis ATCC 29212 assessed as growth inhibition after 18 hrs by broth microdilution method in absence of 40% mouse serum; format: functional; conditions: ATCC 29212, 18 h
I'd appreciate it if you could supply MIC values for the items below.
One number for each entry, in µg/mL.

Solved cases (2 shown):
NCCCOc1cc(OCCCN)cc(-n2cc(-c3ccc4c(ccc5cc(-c6cn(-c7cc(OCCCN)cc(OCCCN)c7)nn6)ccc54)c3)nn2)c1.O=C(O)C(F)(F)F.O=C(O)C(F)(F)F.O=C(O)C(F)(F)F.O=C(O)C(F)(F)F :: 50
NCCCOc1ccc(-n2cc(-c3ccc4ccc(-c5cn(-c6cc(OCCCN)c(OCCCN)c(OCCCN)c6)nn5)cc4c3)nn2)cc1OCCCN.O=C(O)C(F)(F)F.O=C(O)C(F)(F)F.O=C(O)C(F)(F)F.O=C(O)C(F)(F)F.O=C(O)C(F)(F)F :: 25

Continue with the compound presented below.
**Query** State MIC on Enterococcus faecalis. Entry: NCCCOc1cccc(-n2cc(-c3ccc4ccc(-c5cn(-c6cccc(OCCCN)c6)nn5)cc4c3)nn2)c1.O=C(O)C(F)(F)F.O=C(O)C(F)(F)F
**Result** 50
